- experimental.details: TAR RNA-Tat peptide displacers, HIV-1, primary screen, biochemical, FRET, FAM/TAMRA-labeled Tat (AID 1259389)
- conditions: HIV-1 TAR RNA, Tat peptide displacement FRET; active compounds read high
The campaign covered roughly 100,000 compounds. About 620 (0.62%) were called active. Shown is part of a subset that was picked to be rich in actives.
experimental.endpoint: z-score
Please state the value as a number alone, without comment.

Worked cases, z-score given:
{"columns": ["compound", "z-score"],
 "data": [
  ["CCC1c2cccn2-c2ccccc2CN1C(=O)Nc1ccc(F)c(Cl)c1 (stereo not drawn)", 1.12],
  ["CN1CC=C(c2noc(CCC(=O)Nc3ccc(Cl)cn3)n2)CC1", 1.39],
  ["CC(=O)N[C@H]1CN2CC[C@H](O)[C@@H]2[C@@H](O)[C@@H]1O", 0.34]
]}

// next item, z-score requested
Supply measured z-score of CCC(CC)n1[nH]c(=O)c2c1NC(=O)CSC2c1ccc(Br)cc1 (stereo not drawn) in your reply.
0.25

====

- experimental.details: TAR RNA-Tat peptide displacers, HIV-1, primary screen, biochemical, FRET, FAM/TAMRA-labeled Tat (AID 1259389)
- conditions: HIV-1 TAR RNA, Tat peptide displacement FRET; active compounds read high
The campaign covered roughly 100,000 compounds. About 620 (0.62%) were called active. The sample holds actives, similar compounds and a random draw of the others, so the mix is not that of the screen.
experimental.endpoint: z-score
Answer field: number only, no words.

Would you please look over these solved cases?
{"columns": ["compound", "z-score"],
 "data": [
  ["Cc1nn2c3cc(N4CCNCC4)ccc3nc2c2ccccc12", 3.84],
  ["CC(C)(C)[C@]1(O)C[C@@H]2OC(=O)C[C@@]23C(=O)O[C@@H]2OC(=O)[C@H](O)[C@]213", 2.75],
  ["C=CCOc1ccc(C2SCC(=O)Nc3n[nH]c(C)c32)cc1 (centres undefined)", 1.1]
]}

Here is another compound to look at.
Provide measured z-score value, entry: C#CCOc1ccc(C2SCC(=O)Nc3n[nH]c(C)c32)cc1OC (centres undefined)
1.62
